measurement.target: T1, extracellular domain of human ROR2 (human, UniProt Q01974 34-403)
T1 construct: bought protein; biotinylated in the bivalent assay format; also called Acro Cat. No. RO2-H52E5
T1 sequence (Q01974 34-403 limits assumed): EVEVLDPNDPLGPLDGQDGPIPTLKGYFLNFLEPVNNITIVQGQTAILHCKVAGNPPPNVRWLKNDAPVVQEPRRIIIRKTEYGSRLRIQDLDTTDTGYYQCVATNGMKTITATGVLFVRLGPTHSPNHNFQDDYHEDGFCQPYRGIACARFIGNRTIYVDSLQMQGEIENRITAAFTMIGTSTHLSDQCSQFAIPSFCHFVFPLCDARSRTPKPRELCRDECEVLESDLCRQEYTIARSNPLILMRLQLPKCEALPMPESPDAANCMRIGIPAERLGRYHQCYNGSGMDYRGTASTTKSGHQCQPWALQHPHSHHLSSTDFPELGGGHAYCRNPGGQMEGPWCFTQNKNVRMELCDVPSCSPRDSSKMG
assay.explanation: BLI, IgG1 on biosensor, soluble ROR ectodomain
measurement.name: binding result

I2C-26 IgG1 (antibody, V domains shown, human IgG1) VH: EVQLVESGGGLVQPGGSLRLSCAASGFTFSDYYIHWVRQAPGKGLEWVADIDSYGGFTYYADSVKGRFTISADTSKNTAYLQMNSLRAEDTAVYYCARDPHFLDDVYVLDYWGQGTLVTVSS VL: DIQMTQSPSSLSASVGDRVTITCRASQSVSSAVAWYQQKPGKAPKLLIYSASSLYSGVPSRFSGSRSGTDFTLTISSLQPEDFATYYCQQYSWGLWTFGQGTKVEIK; binds
I2C-25 IgG1 (antibody, V domains shown, human IgG1) VH: EVQLVESGGGLVQPGGSLRLSCAASGFTFSDYYIHWVRQAPGKGLEWVAYIAPYGGFTYYADSVKGRFTISADTSKNTAYLQMNSLRAEDTAVYYCARDSYRRGYVSGFDYWGQGTLVTVSS VL: DIQMTQSPSSLSASVGDRVTITCRASQSVSSAVAWYQQKPGKAPKLLIYSASSLYSGVPSRFSGSRSGTDFTLTISSLQPEDFATYYCQQRYSSPSTFGQGTKVEIK; binds
I2C-6 IgG1 (antibody, V domains shown, human IgG1) VH: EVQLVESGGGLVQPGGSLRLSCAASGFTFSWYFIHWVRQAPGKGLEWVARIYSTGGYTEYADSVKGRFTISADTSKNTAYLQMNSLRAEDTAVYYCARSAFFGALDYWGQGTLVTVSS VL: DIQMTQSPSSLSASVGDRVTITCRASQSVSSAVAWYQQKPGKAPKLLIYSASSLYSGVPSRFSGSRSGTDFTLTISSLQPEDFATYYCQQYPSGPETFGQGTKVEIK; binds
I2C-23 IgG1 (antibody, V domains shown, human IgG1) VH: EVQLVESGGGLVQPGGSLRLSCAASGFTFSSYEIHWVRQAPGKGLEWVASIYPFSGDTYYADSVKGRFTISADTSKNTAYLQMNSLRAEDTAVYYCARPGRAIYYAVMDYWGQGTLVTVSS VL: DIQMTQSPSSLSASVGDRVTITCRASQSVSSAVAWYQQKPGKAPKLLIYSASSLYSGVPSRFSGSRSGTDFTLTISSLQPEDFATYYCQQAGSHLFTFGQGTKVEIK; binds
